molecular target: T1, human NKG2A/CD94 on cells (CHOK1-hNKG2A/CD94) (human, UniProt P26715 1-233; Q13241 1-179); test: FACS on human NKG2A overexpressing cell line
T1 construct: whole, on cells; the killing assays (functional rows) used NK92 cells or primary human NK cells that carry the receptor; also called human NKG2A overexpressing cells; human NKG2A overexpressing cell line
T1 sequence (P26715 whole entry, chain 1 of 2): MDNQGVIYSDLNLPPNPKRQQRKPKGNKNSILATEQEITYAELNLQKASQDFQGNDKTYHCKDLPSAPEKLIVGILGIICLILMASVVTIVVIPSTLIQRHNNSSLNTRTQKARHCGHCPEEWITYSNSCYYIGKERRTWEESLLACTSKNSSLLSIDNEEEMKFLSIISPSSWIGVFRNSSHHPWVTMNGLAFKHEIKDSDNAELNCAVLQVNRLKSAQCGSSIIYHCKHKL
T1 sequence (Q13241 whole entry, chain 2 of 2): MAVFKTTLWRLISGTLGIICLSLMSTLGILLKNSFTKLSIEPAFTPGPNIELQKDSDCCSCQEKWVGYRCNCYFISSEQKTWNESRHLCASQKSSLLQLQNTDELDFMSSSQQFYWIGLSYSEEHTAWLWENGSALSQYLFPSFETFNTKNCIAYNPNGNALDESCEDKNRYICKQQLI
MEASURED PARAMETER: Maximum MFI (MFI)
Supply the numeric figure in MFI, leaving out any unit text.

- BINDER: "hu-52VH-33/VL-21 (antibody, human IgG4 S228P, kappa, V domains shown, full-length humanized antibody; also called hu-52 humanized antibody) VH: QVQLVQSGAEVKKPGSSVKVSCKASGFNIQNTYLHWVRQAPGQGLEWMGRIDPANDNIKYVPKFQGRVTITADTSTNTAYMELSSLRSEDTAVYYCTRHGLFYEGWFAYWGQGTLVTVSS VL: DIQLTQSPSTLSASVGDRVTITCSVSSSISSSNLHWYQQKPGKAPKPLIYGTSNLASGVPSRFSGSGSGTEYTLTISSLQPDDAATYYCQQWSSYPYTFGQGTKLEIKR"
  Maximum MFI, MFI: 18000

Query string: Requested field: Maximum MFI. Item: hu-52VH-33/VL-11 (antibody, human IgG4 S228P, kappa, V domains shown, full-length humanized IgG4 antibody (not the L235E/D265A/R409K IgG4 mutant); also called hu-52 humanized antibody) VH: QVQLVQSGAEVKKPGSSVKVSCKASGFNIQNTYLHWVRQAPGQGLEWMGRIDPANDNIKYVPKFQGRVTITADTSTNTAYMELSSLRSEDTAVYYCTRHGLFYEGWFAYWGQGTLVTVSS VL: DIQLTQSPSSLSASVGDRVTITCSVSSSISSSNLHWYQQKPGKAPKPLIYGTSNLASGVPSRFSGSGSGTDYTLTISSLQPEDAATYYCQQWSSYPYTFGQGTKLEIKR
Result string: 18800
